Tested on: PXR:RXRa (NR concentration 270 nM, RXRa partner concentration 90 nM)
experimentalDetails: PBM binding z-score (relative to random genomic background probes); higher = stronger binding; sequences stand for … in GC…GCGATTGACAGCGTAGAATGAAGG
Below, each entry is listed with its recorded PBM binding z-score.
No unit in the answer, please; the number alone is enough.

{"columns": ["sequence", "assayReadout", "observedResult"],
 "data": [
  ["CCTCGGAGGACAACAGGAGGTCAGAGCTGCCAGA", "PBM binding z-score", 2.02]
]}

Quick note, PBM binding z-score for `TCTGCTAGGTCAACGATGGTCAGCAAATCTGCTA` landed at 1.47

Quick note, PBM binding z-score for `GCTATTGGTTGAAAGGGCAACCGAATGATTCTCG` landed at 0.73

Quick note, PBM binding z-score for `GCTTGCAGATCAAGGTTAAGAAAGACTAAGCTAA` landed at 0.18
